Test system: Burkholderia cepacia
Assay: In vitro antibacterial activity against gram negative Pseudomonas cepacia 2961
Format: functional
Settings: Burkholderia cepacia; read-out: MIC
experimental endpoint: MIC (µg/mL)

Below are worked cases with known answers.
Cc1c(N2CCCC(NC3CC3)C2)c(F)cn2c(=O)c(C(=O)O)cc(C3CC3)c12 (stereo unspecified); 3.1
CN[C@@H]1CN(c2c(F)cn3c(=O)c(C(=O)O)cc(C4CC4)c3c2C)C[C@@H]1C; 1.56
Cc1c(N2CCC(CN)C2)c(F)cn2c(=O)c(C(=O)O)cc(C3CC3)c12 (stereo unspecified); 0.39
Cc1c(N2CC[C@@H]3CCNC[C@@H]32)c(F)cn2c(=O)c(C(=O)O)cc(C3CC3)c12; 3.1
Cc1c(N2CC[C@@H]3CNC[C@@H]32)c(F)cn2c(=O)c(C(=O)O)cc(C3CC3)c12; 3.1

(A) Cc1c(N2CCCN2C)c(F)cn2c(=O)c(C(=O)O)cc(C3CC3)c12
(B) Cc1c(N2C[C@H]3CNC[C@H]3C2)c(F)cn2c(=O)c(C(=O)O)cc(C3CC3)c12
q: I need your help: which of the pair A , B has higher MIC? Write down the label of the entry you select.
a: B
(B: 3.1 µg/mL, A: 1.56 µg/mL)

(a) Cc1c(N2C[C@@H](N)[C@H](C3CC3)C2)c(F)cn2c(=O)c(C(=O)O)cc(C3CC3)c12 (stereo in doubt; 3t)
(b) CCN[C@H]1CCN(c2c(F)cn3c(=O)c(C(=O)O)cc(C4CC4)c3c2C)C1
(c) Cc1c(N2C[C@@H]3CCN[C@@H]3C2)c(F)cn2c(=O)c(C(=O)O)cc(C3CC3)c12 (stereo in doubt; 3gg)
(d) Cc1c(N2CC[C@H](NC3CC3)C2)c(F)cn2c(=O)c(C(=O)O)cc(C3CC3)c12
q: Rank the items in ascending order with respect to MIC. Could you list the labels in the order requested?
a: d, a, c, b

(A) Cc1c(N2CCCC2)c(F)cn2c(=O)c(C(=O)O)cc(C3CC3)c12
(B) Cc1c(N2CCC(CNCCF)C2)c(F)cn2c(=O)c(C(=O)O)cc(C3CC3)c12 (stereo unspecified)
(C) Cc1c(N2CC[C@@H]3NCCC[C@@H]32)c(F)cn2c(=O)c(C(=O)O)cc(C3CC3)c12
q: Sort these compounds on MIC so the largest reading comes first. Could you list the labels in the order requested?
a: C, B, A
(C: 25 µg/mL, B: 3.1 µg/mL, A: 0.78 µg/mL)

(P) Cc1c(N2C[C@@H](N)[C@@H](C3CC3)C2)c(F)cn2c(=O)c(C(=O)O)cc(C3CC3)c12 (stereo in doubt; 3s)
(Q) Cc1c(N2CCC2)c(F)cn2c(=O)c(C(=O)O)cc(C3CC3)c12
q: I need your help: which of the pair P , Q has higher MIC? Write down the label of the entry you select.
a: Q
(Q: 3.1 µg/mL, P: 0.78 µg/mL)

(P) COCCN[C@H]1CCN(c2c(F)cn3c(=O)c(C(=O)O)cc(C4CC4)c3c2C)C1
(Q) Cc1c(N2CC[C@@H](C)[C@@H](N)C2)c(F)cn2c(=O)c(C(=O)O)cc(C3CC3)c12
q: I need your help: which of the pair P , Q has higher MIC? Write down the label of the entry you select.
a: Q
(Q: 6.2 µg/mL, P: 0.78 µg/mL)

(P) Cc1c(N2C[C@@H]3COC[C@]3(CN)C2)c(F)cn2c(=O)c(C(=O)O)cc(C3CC3)c12
(Q) Cc1c(N2C[C@H]3CCNC[C@@H]3C2)c(F)cn2c(=O)c(C(=O)O)cc(C3CC3)c12
q: I need your help: which of the pair P , Q has higher MIC? Write down the label of the entry you select.
a: P

(a) Cc1c(N2C[C@@H]3CCCC[C@]3(CN)C2)c(F)cn2c(=O)c(C(=O)O)cc(C3CC3)c12
(b) Cc1c(N2C[C@@H]3OCCN[C@@H]3C2)c(F)cn2c(=O)c(C(=O)O)cc(C3CC3)c12
(c) Cc1c(N2C[C@H]3CCN[C@H]3C2)c(F)cn2c(=O)c(C(=O)O)cc(C3CC3)c12
(d) Cc1c(N2C[C@@H]3CCCC[C@]3(N)C2)c(F)cn2c(=O)c(C(=O)O)cc(C3CC3)c12
q: Sort these compounds on MIC so the largest reading comes first. Could you list the labels in the order requested?
a: b, a, d, c

(P) Cc1c(N2CC[C@H](NCC(F)(F)F)C2)c(F)cn2c(=O)c(C(=O)O)cc(C3CC3)c12
(Q) Cc1c(N2CCCO2)c(F)cn2c(=O)c(C(=O)O)cc(C3CC3)c12
q: Could you tell me which of P and Q has the lower MIC reading? Write down the label of the entry you select.
a: P
(P: 3.1 µg/mL, Q: 6.2 µg/mL)
